Target: Epidermal growth factor receptor (Homo sapiens, UniProt P00533, L858R)
Sequence (P00533 whole entry L858R): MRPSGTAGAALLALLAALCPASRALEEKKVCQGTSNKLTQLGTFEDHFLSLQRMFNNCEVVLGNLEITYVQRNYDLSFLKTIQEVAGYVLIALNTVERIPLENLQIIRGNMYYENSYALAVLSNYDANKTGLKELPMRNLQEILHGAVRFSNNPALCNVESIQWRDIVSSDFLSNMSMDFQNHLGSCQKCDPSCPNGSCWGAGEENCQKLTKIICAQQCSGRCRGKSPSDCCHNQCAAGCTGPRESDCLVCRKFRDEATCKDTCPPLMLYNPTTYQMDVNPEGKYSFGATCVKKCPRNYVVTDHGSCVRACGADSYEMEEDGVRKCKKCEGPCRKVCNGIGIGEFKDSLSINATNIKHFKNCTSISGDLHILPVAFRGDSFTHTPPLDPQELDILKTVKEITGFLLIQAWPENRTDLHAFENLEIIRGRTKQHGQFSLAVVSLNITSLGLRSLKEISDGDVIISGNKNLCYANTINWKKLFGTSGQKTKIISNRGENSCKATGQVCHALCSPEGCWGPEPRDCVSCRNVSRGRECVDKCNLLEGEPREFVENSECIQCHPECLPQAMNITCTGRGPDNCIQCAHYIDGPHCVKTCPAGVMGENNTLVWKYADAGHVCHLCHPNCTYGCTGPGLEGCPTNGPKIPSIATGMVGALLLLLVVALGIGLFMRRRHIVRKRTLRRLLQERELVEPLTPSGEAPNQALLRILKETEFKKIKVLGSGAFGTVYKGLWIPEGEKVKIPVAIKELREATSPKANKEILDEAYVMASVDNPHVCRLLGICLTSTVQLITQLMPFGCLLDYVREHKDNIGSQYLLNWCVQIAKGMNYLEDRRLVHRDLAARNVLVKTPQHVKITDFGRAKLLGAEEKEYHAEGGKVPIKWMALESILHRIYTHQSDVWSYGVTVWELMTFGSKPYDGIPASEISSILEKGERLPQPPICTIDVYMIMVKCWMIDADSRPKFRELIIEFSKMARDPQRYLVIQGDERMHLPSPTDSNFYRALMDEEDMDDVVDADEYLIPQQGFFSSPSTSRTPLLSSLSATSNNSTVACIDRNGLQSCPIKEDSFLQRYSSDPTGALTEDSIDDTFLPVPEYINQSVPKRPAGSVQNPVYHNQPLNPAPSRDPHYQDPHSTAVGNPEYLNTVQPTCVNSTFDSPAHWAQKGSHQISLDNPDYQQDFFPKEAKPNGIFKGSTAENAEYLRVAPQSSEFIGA
pKi: −log10 of the molar value.

[
  {
    "structure-smiles-string": "C=CC(=O)NCCSc1nc(-c2ccc(F)cc2)c(-c2ccnc(Nc3ccccc3)c2)[nH]1",
    "tested-system": "Epidermal growth factor receptor (Homo sapiens, UniProt P00533, L858R)",
    "pKi": 9.42
  },
  {
    "structure-smiles-string": "C=CC(=O)Nc1ccc(OC)c(Nc2cc(-c3[nH]c(CCCO)nc3-c3ccc(F)cc3)ccn2)c1",
    "tested-system": "Epidermal growth factor receptor (Homo sapiens, UniProt P00533, L858R)",
    "pKi": 10.52
  }
]
